Reported relative kcat/Km values for the following sequences.
Target: E. coli RNase P holoenzyme (M1 P RNA + rnpA protein) (UniProt P0A7Y8)
Sequence: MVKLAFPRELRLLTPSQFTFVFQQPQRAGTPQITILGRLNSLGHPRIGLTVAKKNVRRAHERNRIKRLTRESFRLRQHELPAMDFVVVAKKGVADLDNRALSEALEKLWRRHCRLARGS
Assay: relative kcat/Km (krel) vs genomic leader AAAGAU (relative (reference leader = 1)); higher = faster RNase P cleavage
Conditions: fraction of substrate reacted: ~26-29% (28.66% repeat 1, 26.4% repeat 2)
The full ranking holds about 4,100 sequences; the median of “relative kcat/Km (krel) vs genomic leader AAAGAU” is about 1.7, and the highest 2% start at about 6.5. Many of the other results were omitted from the sample, so the highest values are more common in it than they were.
Lab note: jot the number down without any unit.

Recorded relative kcat/Km, per entry:
{"columns": ["Sequence", "relative kcat/Km"],
 "data": [
  ["TTCACA", 7.72],
  ["TGATGT", 1.37],
  ["CGCGAA", 4.94],
  ["TTCGAT", 4.44],
  ["TTCACT", 7.57],
  ["TTCACC", 8.13],
  ["GTCACG", 3.97],
  ["ATCTTT", 6.67]
]}

input: What value of relative kcat/Km has been reported for the following sequence? `ATCTTG`
output: 2.72

input: Try this sequence next: `TTCGTA`
output: 6.35

input: Try this sequence next: `TTCGAG`
output: 4.8

input: Try this sequence next: `TTCGTG`
output: 2.01

input: Try this sequence next: `GTCACT`
output: 6.31

input: Try this sequence next: `TTATGC`
output: 6.16

input: Try this sequence next: `ATCACA`
output: 5.18

input: Try this sequence next: `TTCGAA`
output: 10.3

---

Target: E. coli RNase P holoenzyme (M1 P RNA + rnpA protein) (UniProt P0A7Y8)
Sequence: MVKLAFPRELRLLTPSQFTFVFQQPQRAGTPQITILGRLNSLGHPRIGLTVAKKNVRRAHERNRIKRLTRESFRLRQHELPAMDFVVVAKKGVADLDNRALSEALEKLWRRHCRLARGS
Assay: relative kcat/Km (krel) vs genomic leader AAAGAU (relative (reference leader = 1)); higher = faster RNase P cleavage
Details: fraction of substrate reacted: ~9-10% (9.79% repeat 1, 9.1% repeat 2)
The full ranking holds about 4,100 sequences; the median of “relative kcat/Km (krel) vs genomic leader AAAGAU” is about 1.7, and the highest 2% start at about 6.5. The full list was thinned out, with the highest values kept by preference.
Reported relative kcat/Km values for the following sequences.
Lab note: jot the number down without any unit.

{"columns": ["Sequence", "relative kcat/Km"],
 "data": [
  ["AAGAAT", 2.06],
  ["ACCGAA", 3.81],
  ["TGCTAC", 2.42],
  ["CCACTT", 1.71],
  ["TCATGG", 0.253]
]}

input: What value of relative kcat/Km has been reported for the following sequence? `CTCTAA`
output: 4.48

input: Try this sequence next: `GCCGAA`
output: 3.56

input: Try this sequence next: `ATCCAT`
output: 3.89

input: Try this sequence next: `CTGCCT`
output: 2.67

input: Try this sequence next: `CTAAAA`
output: 2.15
